experiment: yeast display, Sf9 membrane polyspecificity reagent, FACS + sequencing; frameworks hold sequencing errors
measurement-type: polyreactivity (PSR sort gate)

Answered examples (10):
QVQLVESGGGLVQAGGSLRLSCAASGSTFFSNTMGWYRQAPGIERELVAAITSRGGRTYYADSVKGRFTISRDNAKNSVYLQMNSLKPEDTAVYYCAARFVLHGVYLKFYWGQGTQLTVSS | high polyreactivity
QVQLVETGGGLVQAGGSLRLSCAASGRIFGPNSKGWYRQAPGKEREFVASIRYSGGSTYYADSVKGRFTISRDYAKNTVYLQMHSLKPEDTAVYYCAARTVTLSYLYYYWGQGTHVTVSS | high polyreactivity
QVQLVESGGGLVQAGGSLRLSCAASGFTFNDYAMGWYRQAPGKERELVAAIDWSGGRTYYADSVKGRFTISRDNAKNTVYLQLNSLKPEDTAVDYCAVEDLSHAYVQHYRYGYGYWGQGTQVTVSS | low polyreactivity
QVQLVESGGGLVQAGGSLRLSCAASGSTFRWNAMGWYRQAPGKERELDAAINSGGSTNYADSVKGRFTISRDNAKNTVYLQMNSLKPEDTAVYYCATRYDVSYIKFDYWGQGTQVTVSS | high polyreactivity
QVQLVESGGGLVQAGGSLRLSCAASGSTSPNAMGWYRQAPGKERELVAAIWSGGTYYADSVKGRFTISRDNAKNTVYLQLNSLKPEDTAVYYCAVTGVYRGFRYGYLGQGTQVTVSS | low polyreactivity
QVQLVESGGGLVQAGGSLRLSCAASGRTFRYYTMGWYRQAPGKEREFVAAISSTGGTYYADSVKGRFTISRDNAKNTVYLQMNCLIPEDTAVYYCAATFIQVVVNVQLYDYDYWGQGTQVTVSS | low polyreactivity
QVQLVESGGGLVQAGGSLRLSCAASGSTFQYNAMAWYRQAPGKEREFVAAITSSGGSTYYADSVKGRFTISRDNAKNTVYLQMNSLKPEDTAVYYCNKRRTRRYDYWGQGTQVTVSS | high polyreactivity
QVQLVESGGGLVQAGGSLRLSCAASGSTFALNAMGWYRQAPGKERELVAAISGRGGSTYYADSVKGRFTISRDNAKNTVYLQMNSLKPEDTAVYYCAATSRVYVRGSYWKYGYWGQGTQVTVSS | high polyreactivity
QVQLVESGGGVVQAGGRLRLSCAASGGIYRYYAMGWYRQAPGKERELVAVITKSGGDTYYADSVKGRFTISRDNAKNTVYLQMNSLKPEDTAVYYCAAVYGYYTYWIAGFTWAGDYWGQGTQVTVSS | low polyreactivity
QVHLVESGGGLVQAGGSLRLSCPASGRTLDSNAMGWYRQAPGKERELVAAISSAGSTNYADSVKGRFTISRDNAKNTVYLQMNSLKPEDTAVYYCAADLIGSHDYWGQGTQVTVSS | low polyreactivity

Next:
For this sequence ( QVHLVESGGGLVQAGGSLRLSCAASGSTLVIYAMGWYRQAPGKERELVAVITWSGGSTYYADSVKGRFTISRDNAKNTVYLQMNSLKPEDTAVYYCAKRPIVRQRSYYYWGQGTQVTVSS ), measured polyreactivity (PSR sort gate) is low polyreactivity

* * *

assay: yeast display, Sf9 membrane polyspecificity reagent, FACS + sequencing; frameworks hold sequencing errors
measurement-type: polyreactivity (PSR sort gate)

Answered examples (5):
QVQLVESGGGLVQAGGSLRLSCAASGRISFYYARGWSIQAPGKERELVAAISRGGSTYYADSVKGRFTISRDNAKNTVYLQMNSLKPEDTAVYYCAATYSVVDTPSGYDYWGQGTLVTVSS | low polyreactivity
QVQLVESGGGLVQAGGSLRLSCAASGRIFGTNAMGWYRQAPGKESELVATITRGGGNTYYADSVKGRFTISRDNAKNTVYLQMISLKPEDTAVYYCGAKFHRFAWYSHYDYWGQGTQVTVSS | low polyreactivity
QVQLVESWGGLVQAGGSLRLSCAASGSTFSPYAMGWYRQAPGKEREMVATINRGGGSTNYADSVKGRFTISRDNAKNTVYLQMNSRKPEDTAVYYCARVNAAVGYYYRYEYWGHGTQVTVSS | high polyreactivity
QVQLVESGGGLVQAGGSLRLSCAASGLIFTSYAMGWYRQAPGKERELVAAISYSGGTTIYADSVKGRFTISRDYAKNTVYLQMNSVKPEDTAVYYCAADSLSTTHDTLGYDRDDYWGQGSQVTVSS | low polyreactivity
QVQLVESGGGLVQAGGSLRLSCAASGRIIDRNDMGWYRQAPGKERELVAAISSSGSTNYADSVKGRFTISRDNAKNTVYLQMNSLKPEHTAGYYCADRWRSVLASGTRPVSFDYWGQGTQVTVSS | low polyreactivity

For this sequence ( QVQLVESGGGLVQAGGSLRLSCAASGGTFRDYAMGWYRQAPGKERELVASISWTVGGTYADSVKGRFSISRDNAKNTVYLQMNSLKPEDTAVYYCAADYSPSTWYLYYTLYYYWGQGTQVTVSS ), measured polyreactivity (PSR sort gate) is low polyreactivity

For this sequence ( QVQLVESGGGLVQAGGSLRLSCAASGFTIYYYAMAWYRQAPGKERELVAAISYSGGSTYYADSVKGRFTISRDNAKNTVYLQMNSLKPEDTAVYYCAVDWYGSYGYGGSQKSDYWGLGTQVTVSS ), measured polyreactivity (PSR sort gate) is high polyreactivity

For this sequence ( QVQLVESGGGLVQAGGSLRLSCAASGRNFALNAMGWYRQAPGKERELLATIRWRGGSTYYADSVKGRFTISRDNAKKTVYLQMNSLKPEDTAVYYCATGPRPYPYDYCGQGTQVTVSS ), measured polyreactivity (PSR sort gate) is high polyreactivity
